Record form. Attribute: BMF. Fill in for each entry.
# PROTOCOL TEXT: Biomagnification factors in Diporeia
# Assay type: ADME

COMPOUND	RESULT
C=Cc1ccccc1 [STYRENE]	< 1

Could you tell me BMF for each of these compounds? They are listed below.
1. Clc1cc(Cl)c(Cl)c(Cl)c1Cl [PENTACHLOROBENZENE]
2. Clc1cc(Cl)c(-c2cc(Cl)c(Cl)cc2Cl)cc1Cl [2,2',4,4',5,5'-HEXACHLOROBIPHENYL]

Reply:
< 1
2.5

// each listed compound needs a value for BMF
1. Clc1cc(Cl)c(-c2cc(Cl)c(Cl)c(Cl)c2Cl)cc1Cl
2. Brc1ccc(Oc2cc(Br)c(Br)cc2Br)c(Br)c1
3. Clc1cc(Cl)c(Cl)cc1Cl
4. Clc1c(Cl)c(Cl)c(Cl)c(Cl)c1Cl [PERCHLOROBENZENE]
5. O=S1OC[C@@H]2[C@H](CO1)[C@@]1(Cl)C(Cl)=C(Cl)[C@@]2(Cl)C1(Cl)Cl (stereo not given in full)

Reply:
2.5
2.5
< 1
1.8
< 1

Need BMF for each of these compounds.
1. CCCN(CCC)c1c([N+](=O)[O-])cc(C(F)(F)F)cc1[N+](=O)[O-] [TRIFLURALIN]
2. ClC1(Cl)C2(Cl)C3(Cl)C4(Cl)C(Cl)(Cl)C5(Cl)C3(Cl)C1(Cl)C5(Cl)C24Cl (stereo not given) [MIREX]

Reply:
1: < 1; 2: 1
